Reference source: paper PMC12316777

Target: SARS-CoV-2 nsp13 (helicase) (Severe acute respiratory syndrome coronavirus 2, UniProt P0DTD1)
Assay: FRET DNA duplex unwinding assay
Format: biochemical
Details: 20 nM nsp13, n = 3; read-out: IC50 (± SD) DNA unwinding
Hi there, I'd appreciate the recorded IC50 for every entry that follows.
Provide the reading as a plain figure in nM.

// IC50 value for CCP(CC)CC.[Au+].[Cl-] [Au(PEt3)Cl, chloro(triethylphosphine)gold(I)] : 330

// IC50 value for O=S(=O)([O-])[S-].O=S(=O)([O-])[S-].[Au+].[Na+].[Na+].[Na+] [Na3Au(S2O3)2, gold(I) sodium thiosulfate] : 380

// IC50 value for [Cl][Au] [AuCl, gold(I) chloride] : 200

* * *

Target: SARS-CoV-2 nsp13 (helicase) (Severe acute respiratory syndrome coronavirus 2, UniProt P0DTD1)
Experiment: ATPase assay (phosphate release)
Format: biochemical
Details: 20 nM nsp13, n = 3; read-out: IC50 (± SD) ATPase
measured parameter: IC50

// IC50 value for O=S(=O)([O-])[S-].O=S(=O)([O-])[S-].[Au+].[Na+].[Na+].[Na+] [Na3Au(S2O3)2, gold(I) sodium thiosulfate] : 250 nM

// IC50 value for `CCP(CC)CC.[Au+].[Cl-]` : 400 nM

// IC50 value for [Cl][Au] [AuCl, gold(I) chloride] : 200 nM

* * *

Biological target: SARS-CoV-2 nsp13 (Severe acute respiratory syndrome coronavirus 2)
measured parameter: pKd
Convention used: pKd is expressed as -log10 of the molar concentration.

// pKd value for CCP(CC)CC.[Au+].[Cl-] [Au(PEt3)Cl, chloro(triethylphosphine)gold(I)] : 5.64
